System: SK-OV-3 ovarian
test-method-notes: NCI tumour cell line growth inhibition, 48 h
parameter: GI50

### Prompt Need GI50 of CNCc1ccc(-c2[nH]c3cc(F)cc4c3c2CCNC4=O)cc1 , thanks.
### Response 18.6 µM

### Prompt Could you tell me which GI50 is on file for COc1cc(N(CCC#N)CCC#N)ccc1/C(N=Nc1ccc(C(=O)O)cc1)=N/NC(=O)c1cc(Br)ccc1O ?
### Response 86.2 µg/mL

### Prompt Look at this molecule and give its reported GI50. C=C(Cn1c2ccccc2c(=O)c2ccccc21)c1ccc(C(=O)Nc2ccccc2N)cc1
### Response 5.99 µM

### Prompt Fill in: GI50 of C#Cc1cccc(NC(=O)C2CCCN(C(=O)CCl)C2)c1 (centres undefined) is ___
### Response > 82.5 µM

### Prompt What measured GI50 goes with COC(=O)c1ccc2[nH]c(O)c(C(=Nc3ccc(N(C)C(=O)CN4CCN(C)CC4)cc3)c3ccccc3)c2c1 ?
### Response 0.444 µM

### Prompt Tell me the measured GI50 of CNCc1cccc2c1OCCOCCOCCC(C)S(=O)(=O)c1ccc(cc1)-c1cnc(N)c(n1)C(=O)N2 (centres undefined) , please.
### Response 0.525 µM

### Prompt Entry NC(N)=N/N=C(/c1ccccc1)c1ccccc1F has what GI50?
### Response 4.82 µM

### Prompt Quick check: GI50 of O=C1CCS/C(=N/S(=O)(=O)c2ccc(N3N=C4c5ccccc5CC4C3c3cccs3)cc2)N1Cc1ccccc1 (centres undefined) ?
### Response 32.9 µM

### Prompt Find the recorded GI50 belonging to C=CCN=C(N/N=C/c1ccc([N+](=O)[O-])o1)NS(=O)(=O)c1cc(C(=O)Nc2ccccc2)c(Cl)cc1SCC(N)=O and report it.
### Response > 100 µM

* * *

Tested on: DMS 273 small cell lung
test-method-notes: NCI tumour cell line growth inhibition, 48 h
So I've got a bunch of molecules here, and I need their TGI values.

### Prompt Item COc1cc(CCc2ccc(OC(C)=O)cc2)cc(OC)c1OC has what recorded TGI?
### Response > 100 µM

### Prompt I'd like to know its TGI. The molecule in question is c1ccc2c3c([nH]c2c1)C1C2CCCCN2C(c2ccncc2)N1CC3 (centres undefined)
### Response > 100 µM

### Prompt # TGI lookup, item CC(=O)OCC1OC(n2c(=S)n(-c3ccccc3)c(=O)c3cc(Br)cc(Br)c32)C(OC(C)=O)C(OC(C)=O)C1OC(C)=O (centres undefined)
### Response > 100 µM

### Prompt Suppose we examine the molecule O=CC1=CCC2c3[nH]c4ccccc4c3CCN2C1 (centres undefined) ; what TGI value has been reported?
### Response 212 µM

### Prompt Query: TGI; subject: Cc1ccc(NCCN(C)C)c2c(=O)c3cc(O)ccc3sc12
### Response 15.9 µM

### Prompt Can you share its TGI? I mean this molecule: O=c1[nH]c2ccc([N+](=O)[O-])cc2nc1/C(=N/Nc1ccccc1)C(O)c1ccco1 (centres undefined)
### Response > 100 µM

### Prompt Form field: reported TGI of [Cl-].[Gd+3].[O-]/N=C(\c1ccccc1)c1ccccn1.[O-]/N=C(\c1ccccc1)c1ccccn1.[O-]/N=C(\c1ccccc1)c1ccccn1
### Response > 100 µM

### Prompt Field request: TGI | item: OCC(O)C(O)C(O)C(O)c1nn[nH]n1 (centres undefined)
### Response > 100 µM

### Prompt I have this molecule here, C(=C\c1c2oc(-c3ccccc3)cc(-c3ccccc3)c-2c2ccccc12)/C=C1\c2ccccc2-c2c(-c3ccccc3)cc(-c3ccccc3)[o+]c21 , and I need its recorded TGI.
### Response > 100 µM
